Data credit: paper PMC6755732

Target: MtrR(R176E) (Neisseria gonorrhoeae, UniProt P39897, R176E)
Construct: hexahistidine tag with TEV protease site (N, cleaved yes)
Sequence (P39897 whole entry R176E): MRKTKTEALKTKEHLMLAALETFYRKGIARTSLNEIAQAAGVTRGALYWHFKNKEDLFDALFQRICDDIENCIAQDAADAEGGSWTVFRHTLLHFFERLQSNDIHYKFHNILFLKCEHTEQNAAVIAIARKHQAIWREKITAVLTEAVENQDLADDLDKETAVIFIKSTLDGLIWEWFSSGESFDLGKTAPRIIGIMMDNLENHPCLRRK
Assay: Isothermal titration calorimetry, MtrR(R176E) with bile salts
Details: ITC; read-out: Kd of bile salt binding to MtrR(R176E)
Protocol: Purified MtrR was dialyzed extensively against buffer containing 20 mM Tris [pH 8.0], 200 mM NaCl, 10% glycerol, and 1 mM TCEP overnight at 4°C. The stock solutions and the necessary dilutions of the bile salts were prepared using this dialysis buffer. Titrations with 20 μM MtrR in the cell and 250 μM ligand in the syringe were performed using a VP-ITC microcalorimeter (Microcal Inc.). […] After subtraction of germane blank data, the titration data were analyzed using the program ORIGIN 5.0. […]
quantity-measured: pKd
Please treat pKd as minus the base-10 logarithm of the molar concentration.

Answer with the recorded pKd of C[C@H](CCC(=O)O)[C@H]1CC[C@H]2[C@@H]3[C@H](O)C[C@@H]4C[C@H](O)CC[C@]4(C)[C@H]3CC[C@]12C [Chenodeoxycholate, chenodeoxycholate] only.
4.01
